// ΔT = decomposition temperature − sublimation temperature lookup, one value per entry
- assay_notes: Sublimability: decomposition temperature (TG/DTA, 5% mass loss) minus sublimation temperature
- Format: physicochemical
- experimental_conditions: 5% mass reduction, sublimation: Ar flow, vacuum 1×10^−1 Pa
Reply with just the number (in °C).

[[record]]
compound_structure = "c1ccc(-c2ccccc2-c2ccc(-c3ccccc3-c3ccccc3)c3c2-c2ccc4c5ccc6c7c(ccc(c8ccc-3c2c48)c75)-c2c(-c3ccccc3)ccc(-c3ccccc3)c2-6)cc1"
measure_unit = "°C"
assay_result = 130

[[record]]
compound_structure = "CC(C)(C)c1cc2cc(C(C)(C)C)cc3c4ccc5c6cc7c(-c8ccccc8)c8c9ccc%10c%11cc(C(C)(C)C)cc%12cc(C(C)(C)C)cc(c%13ccc(c8c(-c8ccccc8)c7cc6c6ccc(c(c1)c23)c4c65)c9c%13%10)c%12%11"
measure_unit = "°C"
assay_result = 40


Query block: What does the record list as ΔT = decomposition temperature − sublimation temperature for c1ccc(-c2ccc(-c3ccccc3)c3c2-c2ccc4c5ccc6c7c(ccc(c8ccc-3c2c48)c75)-c2c(-c3ccc4ccccc4c3)ccc(-c3ccc4ccccc4c3)c2-6)cc1 ?
Result block: 60

Query block: Here is the next compound: c1ccc(-c2ccccc2-c2c3cc4c(cc3c(-c3ccccc3)c3c5ccc6c7cccc8cccc(c9ccc(c23)c5c69)c87)c2ccc3c5cccc6cccc(c7ccc4c2c37)c65)cc1
Result block: 100
